# ASSAY_DETAILS: CEETOX_H295R_PROG: CeeTox H295R High-throughput Steroidogenesis Assay for Progesterone (PROG) (AID 2283442);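 for AC50: human H295R adrenal cells primed with 10 µM forskolin before dosing; progesterone secreted into medium by H295R cells measured by HPLC-MS/MS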
# MEASUREMENT_CONDITIONS: actives raise or lower the signal
Calls of active or inactive are those of the source. Rule for the calls: active = hit-call score of the fitted dose curve at least 0.9, where 1 is the maximum; inactive = score below 0.9.
METRIC: AC50

Please review the following examples before continuing.
COc1cc(Cl)c(OC)cc1Cl = inactive
CCNP(=S)(OC)O/C(C)=C/C(=O)OC(C)C (configuration not stated) = 50 µM (active)
CCN(CC)c1nc(C)cc(OP(=S)(OC)OC)n1 = 45.8 µM (active)
CC1(C)CCC(=Cc2ccc(Cl)cc2)C1(O)Cn1cncn1 (configuration not stated) = 0.716 µM (active)
CCOC(=O)C(C)OC(=O)c1cc(Oc2ccc(C(F)(F)F)cc2Cl)ccc1[N+](=O)[O-] (configuration not stated) = inactive

Could you tell me which AC50 is on file for CCOc1nc(C(Cl)(Cl)Cl)ns1 ?
inactive

# query: AC50 of entry CN/C(=N\[N+](=O)[O-])NCc1cnc(Cl)s1
inactive

What measured AC50 goes with COP(=S)(OC)SCn1nnc2ccccc2c1=O ?
inactive

Dear colleague, I am looking for the recorded AC50 of the following compound: CC(C)(C)C(=O)C(Oc1ccc(Cl)cc1)n1cncn1 (configuration not stated)
3.12 µM (active)

Entry under review: N#Cc1c(Cl)cccc1Cl . Reported AC50?
inactive

Which AC50 value is on record for CC1(C)CON(Cc2ccccc2Cl)C1=O ?
inactive

Entry CC(C)Nc1nc(Cl)nc(NC(C)C)n1 : reported AC50 = ?
inactive

====

# ASSAY_DETAILS: APR_HepG2_MicrotubuleCSK_72hr: Apredica 72-hour HepG2 Assay for Microtubule CSK Stabilty (AID 2282919)
# MEASUREMENT_CONDITIONS: HepG2 microtubule cytoskeleton, high-content imaging, actives raise or lower the signal
Activity calls are given as the source filed them. Rule for the calls: active = hit-call score of the fitted dose curve at least 0.9, where 1 is the maximum; inactive = score below 0.9.
Please reply with one of these outcomes: t (active), f (inactive)

O=P(O)(O)CCCl = f
CCN(CC)C(=O)C(C)Oc1cccc2ccccc12 (configuration not stated) = f
CCNP(=S)(OC)O/C(C)=C/C(=O)OC(C)C (configuration not stated) = f

Call for entry CC(C)Oc1cccc(NC(=O)c2ccccc2C(F)(F)F)c1 :
t

# outcome recorded in this test, key = CCCCOCN(C(=O)CCl)c1c(CC)cccc1CC
t

Write down the call the test reported for this compound. Item: O=C(Nc1ccccc1-c1ccc(Cl)cc1)c1cccnc1Cl
f

Which result was noted for this compound in the test: N#CN=C1SCCN1Cc1ccc(Cl)nc1
f

Short answer needed: outcome of this test for CC1(C)CCC(=Cc2ccc(Cl)cc2)C1(O)Cn1cncn1 (configuration not stated) ?
f

Just curious, what result did CCOP(=O)(OCC)Oc1nc(Cl)c(Cl)cc1Cl get here?
f

What classification did COP(=S)(OC)Oc1ccc([N+](=O)[O-])c(C)c1 end up with in this test?
f

Query: recorded result category for CSC(=O)c1c(C(F)F)nc(C(F)(F)F)c(C(=O)SC)c1CC(C)C in this test
t

====

# TARGET_SYSTEM: Estrogen receptor beta (Homo sapiens) (UniProt Q92731)
# Sequence (Q92731 whole entry, looked up, the tested form may be a part): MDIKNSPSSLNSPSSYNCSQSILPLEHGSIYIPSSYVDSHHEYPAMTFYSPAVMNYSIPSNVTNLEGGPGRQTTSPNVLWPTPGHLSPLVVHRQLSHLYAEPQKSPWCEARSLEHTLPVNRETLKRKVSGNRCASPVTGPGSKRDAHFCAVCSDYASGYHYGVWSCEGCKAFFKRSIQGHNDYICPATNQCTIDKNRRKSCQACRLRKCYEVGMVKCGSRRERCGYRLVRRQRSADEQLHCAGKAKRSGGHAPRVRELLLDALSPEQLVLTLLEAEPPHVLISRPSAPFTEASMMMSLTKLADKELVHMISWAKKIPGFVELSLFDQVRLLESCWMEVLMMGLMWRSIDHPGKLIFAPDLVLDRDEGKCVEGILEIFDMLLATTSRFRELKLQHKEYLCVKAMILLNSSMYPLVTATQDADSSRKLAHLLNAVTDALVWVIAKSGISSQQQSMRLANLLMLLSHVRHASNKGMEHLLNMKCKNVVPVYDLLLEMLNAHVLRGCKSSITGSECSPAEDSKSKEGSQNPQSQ
# ASSAY_DETAILS: OT_ER_ERbERb_1440: Odyssey Thera (OT) 24-hour HEK293T Protein-Complementation Assay for Estrogen Receptor-beta/-beta Homodimer (AID 2283380);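 note: fluorescence gain from ER beta LBD homodimer complementation read by laser scanning cytometry; scored as signal increase over DMSO baseline for both agonists and antagonists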
Active and inactive are the calls of the source. The calls were made as follows: active = hit-call score of the fitted dose curve at least 0.9, where 1 is the maximum; inconclusive = response in the unintended direction; inactive = score below 0.9.
Output constraint: value belongs to active, inactive

// below: answered molecules
Nc1c(Cl)c(F)nc(OCC(=O)O)c1Cl = inactive
CC(C)N1C(=O)N(c2ccccc2)CSC1=NC(C)(C)C = active
Nc1cnn(-c2ccccc2)c(=O)c1Cl = inactive
CCCCOCN(C(=O)CCl)c1c(CC)cccc1CC = inactive

What call does the record list for CC1(C)CCC(=Cc2ccc(Cl)cc2)C1(O)Cn1cncn1 (stereo unspecified) ?
inactive

For O=C(O)c1c(Cl)ccc2cc(Cl)cnc12 , what call appears in the results of this test?
inactive

Look up the recorded call for COc1cc(OC)nc(NC(=O)NS(=O)(=O)c2ncccc2OCC(F)(F)F)n1 in this test.
inactive

Tell me the assay call for Clc1cccc(C(Cl)(Cl)Cl)n1 please.
inactive

Per the records of this test, what outcome belongs to COP(=O)(OC)O/C(C)=C/C(=O)N(C)C ?
inactive

Query: recorded result category for CCOc1nc(F)cc2nc(S(=O)(=O)Nc3c(Cl)cccc3Cl)nn12 in this test
inactive

Which outcome did this test record for the molecule CC1(C)C(C(=O)OC(C#N)c2cccc(Oc3ccccc3)c2)C1(C)C (stereo unspecified) ?
inactive

====

# Read-out: Monokine induced gamma interferon (MIG), CXCL9 (gene 4283)
# ASSAY_DETAILS: BSK_CASM3C_MIG: BioMAP Diversity Plus: CASM3C Assay for Monokine induced gamma interferon (MIG) Biomarker Activity (AID 2283048);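 note: MIG protein level measured by ELISA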
# MEASUREMENT_CONDITIONS: primary human coronary artery smooth muscle cells; actives raise or lower the signal
Calls of active or inactive are those of the source. How the source made its calls: active means hit-call score of the fitted dose curve at least 0.9, where 1 is the maximum; inactive means score below 0.9.
METRIC: outcome

CC(C)N1C(=O)c2ccccc2NS1(=O)=O = inactive
CS(=O)(=O)c1cc(C(F)(F)F)ccc1C(=O)c1cnoc1C1CC1 = inactive
Cc1cnc(C2=NC(C)(C(C)C)C(=O)N2)c(C(=O)O)c1 (configuration not stated) = inactive
COC(=O)NC(=S)Nc1ccccc1NC(=S)NC(=O)OC = inactive
Cc1nc(N(C)C)nc(OC(=O)N(C)C)c1C = inactive
CCCCC(C#N)(Cn1cncn1)c1ccc(Cl)cc1 (configuration not stated) = inactive
COCC(=O)N(c1c(C)cccc1C)C(C)C(=O)OC (configuration not stated) = inactive
O=C(O)c1c(Cl)ccc2cc(Cl)cnc12 = inactive

Name the reported outcome value associated with the compound COC(=O)c1c(C(F)F)nc(C(F)(F)F)c(C2=NCCS2)c1CC(C)C
inactive

Report outcome for CCCCOCN(C(=O)CCl)c1c(CC)cccc1CC please.
inactive

Please report the recorded outcome for CCSC(=O)N1CCCCCC1 .
inactive

Requested field: outcome. Item: CN/C(=N\[N+](=O)[O-])NCc1cnc(Cl)s1
inactive

====

# ASSAY_DETAILS: CCTE_Shafer_MEA_acute_burst_duration_mean: CCTE's Neural Acute Assay for Mean Burst Duration, Shafer Lab (AID 2284014);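 note: hits are decreases in mean burst duration relative to DMSO controls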
Active and inactive are the calls of the source. How the source made its calls: active means hit-call score of the fitted dose curve at least 0.9, where 1 is the maximum; inactive means score below 0.9.
Would you mind answering with one of these outcomes? class 1 for active, class 0 for inactive

C=C(C)CN(CC)c1c([N+](=O)[O-])cc(C(F)(F)F)cc1[N+](=O)[O-] = class 0
O=C(Nc1ccccc1-c1ccc(Cl)cc1)c1cccnc1Cl = class 0
CNC(=O)Oc1cccc2ccccc12 = class 0
COC(=O)N(C(=O)N1CO[C@@]2(C(=O)OC)Cc3cc(Cl)ccc3C2=N1)c1ccc(OC(F)(F)F)cc1 = class 0
CO/N=C(/C1=NOCCO1)c1ccccc1Oc1ncnc(Oc2ccccc2Cl)c1F = class 0

Kindly review the next molecule as well.
So what was the verdict on CC(C)N1C(=O)c2ccccc2NS1(=O)=O in this test?
class 0

====

# ASSAY_DETAILS: ATG_NF_kB_CIS: Attagene CIS-FACTORIAL HepG2 Assay for human Nuclear Factor Kappa B (NF-kB) (AID 2282991)
# MEASUREMENT_CONDITIONS: HepG2 Attagene cis-factorial NF-kB reporter mRNA; actives raise or lower the signal
Active and inactive are the calls of the source. How the source made its calls: active means hit-call score of the fitted dose curve at least 0.9, where 1 is the maximum; inactive means score below 0.9.
METRIC: outcome

Reference set (5 entries):
OC(c1ccc(Cl)cc1)(c1ccc(Cl)cc1)C(Cl)(Cl)Cl = inactive
Cc1c(COC(=O)[C@@H]2[C@H](/C=C(\Cl)C(F)(F)F)C2(C)C)cccc1-c1ccccc1 = inactive
CC1(C)C(C(=O)OC(C#N)c2cccc(Oc3ccccc3)c2)C1(C)C (stereo unspecified) = inactive
CCOc1nc(F)cc2nc(S(=O)(=O)Nc3c(Cl)cccc3Cl)nn12 = inactive
CCOP(=S)(OCC)Oc1nc(Cl)n(C(C)C)n1 = inactive

What measured outcome goes with COC(=O)NC(=S)Nc1ccccc1NC(=S)NC(=O)OC ?
inactive

====

# Test system: zebrafish Estrogen Receptor (ESR2A), gene 317734
# ASSAY_DETAILS: ATG_zfER2a_XSP1: Attagene TRANS-FACTORIAL Multi-Species (XSP1) HepG2 Assay for zebrafish Estrogen Receptor (ESR2A) (AID 2283778)
Inconclusive results are not listed. Activity calls are given as the source filed them. How the source made its calls: active means hit-call score of the fitted dose curve at least 0.9, where 1 is the maximum; inconclusive means response in the unintended direction; inactive means score below 0.9.
Classes to choose from: Yes for active, No for inactive

Cc1c(COC(=O)[C@@H]2[C@H](/C=C(\Cl)C(F)(F)F)C2(C)C)cccc1-c1ccccc1 = No

Could you kindly confirm the outcome this assay logged for CCN(CC)C(=O)C(C)Oc1cccc2ccccc12 (stereo not given) ?
Yes

====

# Read-out: CYP2C8 (gene 1558)
# ASSAY_DETAILS: LTEA_HepaRG_CYP2C8: Life Technologies and Expression Analysis (LTEA) Assay for CYP2C8 using HepaRG (AID 2283483)
# MEASUREMENT_CONDITIONS: mRNA level, 48 h; actives raise or lower the signal
Activity calls are given as the source filed them. Rule for the calls: active = hit-call score of the fitted dose curve at least 0.9, where 1 is the maximum; inactive = score below 0.9.
I would appreciate it if you answered using one of these outcomes: YES for active, NO for inactive

COC(=O)NC(=S)Nc1ccccc1NC(=S)NC(=O)OC = NO
CCOP(=O)(OCC)Oc1nc(Cl)c(Cl)cc1Cl = YES
CC(C)NC(=O)N1CC(=O)N(c2cc(Cl)cc(Cl)c2)C1=O = NO
CCOc1cc(C(C)(C)C)ccc1C1COC(c2c(F)cccc2F)=N1 (stereo unspecified) = YES

Name the outcome recorded for COCc1cnc(C2=NC(C)(C(C)C)C(=O)N2)c(C(=O)O)c1 (stereo unspecified) in the assay.
NO

Each molecule tested received a call. Report the one for COc1cc(OC)nc(NC(=O)NS(=O)(=O)c2ncccc2OCC(F)(F)F)n1 .
NO
